Data origin: patent US20120004166A1

Biological target: GPCR GPR40 (Rattus norvegicus)
Sequence (Q8K3T4 whole entry): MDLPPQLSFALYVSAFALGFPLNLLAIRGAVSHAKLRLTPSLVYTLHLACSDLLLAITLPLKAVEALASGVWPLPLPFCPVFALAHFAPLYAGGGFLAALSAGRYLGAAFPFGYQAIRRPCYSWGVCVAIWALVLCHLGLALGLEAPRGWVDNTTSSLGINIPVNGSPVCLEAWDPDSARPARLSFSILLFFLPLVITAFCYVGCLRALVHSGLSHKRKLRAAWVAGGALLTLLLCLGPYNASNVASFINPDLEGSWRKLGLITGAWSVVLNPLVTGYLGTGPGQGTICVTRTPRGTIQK
Assay: In vitro FLIPR assay with recombinant cells which express the GPCR GPR40
Details: recombinant HEK293 cells expressing rat GPR40; agonist-induced change in intracellular Ca2+ (Fluo-4, FLIPR); 100% = 10 μM linoleic acid
Sorting guide: entries reporting EC50 beneath 400 nM go in the Criterion met pile, the rest go in the Criterion not met pile.

COMPOUND	LABEL VALUE
CC#CC(CC(=O)O)c1ccc(OCCCOc2ccccc2C(F)(F)F)cc1 (stereo not drawn) [Example 6]	Criterion met
CC#CC(CC(=O)O)c1ccc(OCC(C)COc2ccc(C(F)(F)F)cc2)cc1 (stereo not drawn) [Example 34]	Criterion not met
CC#CC(CC(=O)O)c1ccc(OCCOc2ccccc2C)cc1 (stereo not drawn) [Example 20]	Criterion met
CC#CC(CC(=O)O)c1ccc(OCCCCOc2cccc(C(C)(C)C)c2)cc1 (stereo not drawn) [Example 3]	Criterion met
CC#CC(CC(=O)O)c1ccc(OCCOc2ccccc2)cc1 (stereo not drawn) [Example 17]	Criterion met
CC#CC(CC(=O)O)c1ccc(OCC(COCC2CC2)COc2ccc(C#N)c(Cl)c2)cc1 (stereo not drawn) [Example 51]	Criterion not met
CC#CC(CC(=O)O)c1ccc(OCC(CCC)COc2ccc(C(F)(F)F)cc2)cc1 (stereo not drawn) [Example 44]	Criterion not met
CC#CC(CC(=O)O)c1ccc(OCC[C@@H](C)Oc2ccccc2C(F)(F)F)cc1 (stereo partly drawn) [Example 29]	Criterion met

Lookup: Strictly below 400 nM in EC50? CC#CC(CC(=O)O)c1ccc(OCC(COc2ccc(C(F)(F)F)cc2Cl)OC)cc1 (stereo not drawn) [Example 53]
Found: Criterion met
